# System: MDAMB361
# assay overview: -log10 GI50 (growth inhibition 50%) (-log10(M)); higher = more potent growth inhibition
measure: -log10 GI50
Lab note: jot down the number only; don't add units.

Qu. I'd like to know its -log10 GI50. The compound in question is `COC1=C2C[C@@H](C)C[C@H](OC)[C@H](O)[C@@H](C)/C=C(\C)[C@H](OC(N)=O)[C@@H](OC)/C=C\C=C(/C)C(=O)NC(=CC1=O)C2=O`
Ans. 7.78

Qu. What would you report for `Cc1c(O)cccc1C(=O)N[C@@H](CSc1ccccc1)[C@H](O)CN1C[C@H]2CCCC[C@H]2C[C@H]1C(=O)NC(C)(C)C` ?
Ans. 4.97

Qu. What would you report for COc1cccc2c1C(=O)c1c(O)c3c(c(O)c1C2=O)C[C@@](O)(C(=O)CO)C[C@@H]3O[C@H]1C[C@H](N)[C@@H](O)[C@H](C)O1 [Epirubicin] ?
Ans. 6.65

###

# Test system: 21MT1
# assay overview: -log10 GI50 (growth inhibition 50%) (-log10(M)); higher = more potent growth inhibition
measure: -log10 GI50
Lab note: jot down the number only; don't add units.

Qu. I'd like to know its -log10 GI50. The compound in question is `CC(=O)NCC(=O)N1[C@@H]2CC[C@H]1c1ccc(Nc3ncc(C(F)(F)F)c(NC4CCC4)n3)cc12`
Ans. 5.78

Qu. What would you report for `C[C@@H](Oc1cc(-c2cnn(C3CCNCC3)c2)cnc1N)c1c(Cl)ccc(F)c1Cl` ?
Ans. 5.23

Qu. What would you report for `CCC[C@H](N[C@H]1CCc2cc(F)cc(F)c2C1)C(=O)Nc1cn(C(C)(C)CNCC(C)(C)C)cn1` ?
Ans. 4.38

Qu. What would you report for Cc1c(O)cccc1C(=O)N[C@@H](CSc1ccccc1)[C@H](O)CN1C[C@H]2CCCC[C@H]2C[C@H]1C(=O)NC(C)(C)C [Nelfinavir] ?
Ans. 4.87

Qu. What would you report for COC(=O)Nc1nc2cc(C(=O)c3ccccc3)ccc2[nH]1 [Mebendazole] ?
Ans. 4.74

Qu. What would you report for `Cn1ncc(Cl)c1-c1cc(C(=O)N[C@H](CN)Cc2ccc(F)c(F)c2)oc1Cl` ?
Ans. 5.35

Qu. What would you report for `COc1ccc(-c2cc3c(C)nc(N)nc3n([C@H]3CC[C@H](OCCO)CC3)c2=O)cn1` ?
Ans. 6.54

###

Exercise: state measured -log10 GI50 for each of the molecules provided.
# System: MDAMB157
# assay overview: -log10 GI50 (growth inhibition 50%) (-log10(M)); higher = more potent growth inhibition
Lab note: jot down the number only; don't add units.

Qu. I'd like to know its -log10 GI50. The molecule in question is `COc1cc2c(Nc3ccc(NC(=O)c4ccccc4)cc3)ncnc2cc1OCCCN1CCOCC1`
Ans. 5.66

Qu. What would you report for `Cc1[nH]c2ccccc2c1CCNCc1ccc(/C=C/C(=O)NO)cc1` ?
Ans. 7.29

Qu. What would you report for `O=c1[nH]c2ccccc2n1C1CCN(Cc2ccc(-c3[nH]c4cc5ncnc5cc4nc3-c3ccccc3)cc2)CC1` ?
Ans. 4.86

Qu. What would you report for `COc1ncc(-c2ccc3nccc(-c4ccnnc4)c3c2)cc1NS(=O)(=O)c1ccc(F)cc1F` ?
Ans. 6.51

Qu. What would you report for `Cn1ncc(Cl)c1-c1cc(C(=O)N[C@H](CN)Cc2ccc(F)c(F)c2)oc1Cl` ?
Ans. 5.22

Qu. What would you report for `CC(=O)Nc1cccc(-n2c(=O)n(C3CC3)c(=O)c3c(Nc4ccc(I)cc4F)n(C)c(=O)c(C)c32)c1` ?
Ans. 6.57

Qu. What would you report for `CN(C)C/C=C/C(=O)Nc1cc2c(Nc3ccc(F)c(Cl)c3)ncnc2cc1O[C@H]1CCOC1` ?
Ans. 5.61

Qu. What would you report for `CC(=O)O[C@@]12CO[C@@H]1C[C@H](O)[C@@]1(C)C(=O)[C@H](O)C3=C(C)[C@@H](OC(=O)[C@H](O)[C@@H](NC(=O)OC(C)(C)C)c4ccccc4)C[C@@](O)([C@@H](OC(=O)c4ccccc4)[C@H]21)C3(C)C` ?
Ans. 8.76

Qu. What would you report for COc1cc([C@@H]2c3cc4c(cc3[C@@H](O[C@@H]3O[C@@H]5CO[C@@H](C)O[C@H]5[C@H](O)[C@H]3O)[C@H]3COC(=O)[C@H]23)OCO4)cc(OC)c1O [Etoposide] ?
Ans. 6.02

Provenance of the data: the supplement of paper PMC3937590
